Source of measurements: the nanobody polyreactivity screen of Harvey et al. (2022)

Assay Procedure: yeast display, Sf9 membrane polyspecificity reagent, FACS + sequencing; frameworks hold sequencing errors
Measured Attribute: polyreactivity (PSR sort gate)

Some sequences with recorded polyreactivity (PSR sort gate):
Request: // polyreactivity (PSR sort gate) lookup, key: QVQLVESGGGLVQAGGSLRLSCAASGRTLRLYAMGWYRPAPGKERELVASITGRGGSTYYADSVKGRFTISRDNAKNTVYLQMNSLKPEDTAVYYCAKLPLSTAMGYWGQGTQVTVSS
Result: low polyreactivity

Request: Same lookup for QVQLVESGGGLVQAGGSLRLSCAASGSIFAAYTMGWYRQAPGNERELVAAISVSTVSTYYADSVKGRFTISRDNAKNTVYLQMNSLKPEDTAVYYCNADATDSYPEKDEHESWGQGTQVTVSS , please.
Result: low polyreactivity

Request: Same lookup for QFQLVESGGGLVQAGGSLRLSCAASGIIDGNARGWYRQAPGKEREFVATISVNDGNTYYADSVKGRFTISRDNAKNTVYLQMNSLKPEDTAVSYCATPTVYVPIPDLGDYWGQGTQVTVSS , please.
Result: low polyreactivity

Request: Same lookup for QVQIVESGGGLVQAGGSLRLSCAASRIIFSTYAMGWYRQAPGKEREFVAAITSTGSTNYADSVKGRFTISRDNEKNTVYLQMNSLKPEDTAVYYCAARYAGPSPTDTGHDYWGQGTQVTVSS , please.
Result: low polyreactivity

Request: Same lookup for QVQLVESGGGLVQAGGSLRLSCAASGRIFQSNAMGWNIQAPGKERELVAASNSGDSTYYADSVKGRFTISRDNAINTVYLQMNSLQPEDTAVYYSAADAVYQYYSYYYWGQGTQVTVSS , please.
Result: low polyreactivity

New cases:
Request: // polyreactivity (PSR sort gate) lookup, key: QVQLVESAAGLVKAGASLRLSCAPSGSTFYLNAMGGSRQEPGQESEFVAAIRGGGTSTRYADSVKGRFTISRDNAKNSVYLQMNSLKPEDSAVYYCAAGPGGHRYKVGYWGLGTQVTVSS
Result: high polyreactivity

Request: Same lookup for QVQLEESGGGLVQAGGTLRLSCAASGGIIVSYAMGWYRPAPRKERELVAAITSGGGTSYADSVKGRFTISRDNAKNTVYLQLNSLKPEDTAVYYCNADGYLAERFVIRLVEFRDYDYWGQGTQVTVSS , please.
Result: low polyreactivity

Request: Same lookup for QVQLVESGGGLVQAGGSLRLSCAASGRIFSYNAMGWYRQAPGKERELVAPINTSGGSTYYADSVKGRFTISRDNAKNTVYLHMNSLKPEDTAVYYCNATLPVYWPYYYYQGGDDDWGQGTQVTVSS , please.
Result: low polyreactivity

Request: Same lookup for QVQLVESGGGLVQAGGSLRLSCAASGFIFLGNAMGWYRQAPGKERELVAAISSGGSTYSDSVKGRFTISRDNAKHTVYLQMNSLKPEDTAVYYCAADSFIPPYDHWGQGTQVTVSS , please.
Result: low polyreactivity

Request: Same lookup for QVQLVESGGGLVQAGGSLRLSCAASGRTFQTNVMGWYRQAPGKERELVAAISKTGGRTYYADSVKGRFTISRDNAKNTVYLQMNSLKPEDTAVYYCAADSSGYEDYDYWGQGTQVTVSS , please.
Result: high polyreactivity

Request: Same lookup for QVQLVESGGGLVQAGGSLLLSCAASGYTLEYNAMGWNRQAPGKEREFVARIRWSGSSTYYADSVKGRCTISRDNAKNTVYLQMNSLKPEDTAVYYCNADDGYYVGLSSAIYDYWGQGTQVTVSS , please.
Result: high polyreactivity

Request: Same lookup for QVQLAESGGGLVQAGGSLRLSSAASGRTIGFNGMGWYRQAPGKERELVAAITWNGDSTYADSVKGRFTISRDNAKNTVYLQMNSLKPDDTAVYYCGAEVVAQMNYWGQGTQVTVSS , please.
Result: low polyreactivity

Request: Same lookup for QVQLVESGGGLVQAGGSLRLSCAASGRTFSWYAMGWYRQAPGKERELVAAITWSGGSTYYADSVKGRFTISRDNAKNTVYLQMNSLKPEDTAVYYCNALRYSNRRYYSTGPHDYWGQGTQVTVSS , please.
Result: high polyreactivity

====

Assay Procedure: yeast display, Sf9 membrane polyspecificity reagent, FACS + sequencing; frameworks hold sequencing errors
Measured Attribute: polyreactivity (PSR sort gate)

Some sequences with recorded polyreactivity (PSR sort gate):
Request: // polyreactivity (PSR sort gate) lookup, key: QVQLVESGGGLVQAGGSLRLSCAASGSTFDVNTMGWYRQAPGKERELVAAIRLRGGSTYYADSVKGRFTISRDNAKNTVYLQMYSLKPEDTEVSYCAADYTLIYDYWGQGTQVTVSS
Result: low polyreactivity

Request: Same lookup for QVQLVEAGGGLVQAGGILRLSSAASGSIFPLNAMGWYRQAPGKERELVAAISESGGRTYYADSVNGRFTISRDNAKNTVYLQMNSLNPEDTAVYYCATVRLARKSAPYDYWGQGTQVTVSS , please.
Result: high polyreactivity

Request: Same lookup for HVQQQESGGGLVQAGGSLRLSCAASGYISVFIGMGWYRQSPGKERELVASIAYGAITYYTDSVKGRFTMSRDYAKNTEYLQMNSLKPEDTAVYYCATRRYYRYYNFWYYYWGQGTQVTVSS , please.
Result: high polyreactivity

Request: Same lookup for QVQLVESGGGLVQAGVSLRLSCAASGSILTINAMGLYRQAPGKERELVPAITSGGGSTYYADSVKGRFTISRDNAKNTVYLQMNSLKPEDTAVYYCNKVFVLPYKFVAWFDYWGQGTQVTVSS , please.
Result: low polyreactivity

Request: Same lookup for QVQLVESGGGLVQAGGSLRLSCAASGNIFYKNNMGWYRQAPGKERELVAAISFSGGGTYYADSVKGRFTISRDNAKNTVYLQMNSLKPEDTAVYYCAAEYTYGWTYRPFDYWGQGTQVTVSS , please.
Result: high polyreactivity

Request: Same lookup for QVQLVESGGGLVQAGGSLRLSCAASGGTFLYYAMGWYRQAPGKERELVAAISRGGSTHYADSVKGRFTISRDNAKNTVYLQMNSLKPEDTAVYYCAADRSHRKRINFYDYWGQGTQVTVSS , please.
Result: low polyreactivity

Request: Same lookup for QVQIVESGGGLVQAGGSLRLSCAASGRIFGPYAMVWYRQAPGKERELVAAIRASSSSTYYADSVKGRFTISRDNAKNTVYLQMNSLKPEDTAVYYCAADWYYGYAWKYGYWGQVTQVTVSS , please.
Result: low polyreactivity

Request: Same lookup for QVQLVESGGGLVQAGGSLRLSCAASGIIFGSNAMGWYRQSPGKERELVAAISRNGGRTYYADSVKGRFTISRDNAKNTVYLQMNSLKPEDTAVYYCATRWPHYGGYYYWGQGTQVTVSS , please.
Result: high polyreactivity

Request: Same lookup for QVQLVESGGGLVQAGGSLRLSCAASGITFRDYAMGWYRQAPGKERELVAAISTRGVRTYYADSVKGRFTISRDNAKNTVYLQMNSLKPEDTAVYYCAARSVTYWWVGYEFYYWGQGTQVTVSS , please.
Result: high polyreactivity

Request: Same lookup for QVQLVESGGGLVQAGGSLRLSCAASGSTSVVNTMGWYRQAPGKERELVAAISWSGGSTYYADSVKGRFTISRDNAKNTVYLQMNSLKPEDTAVYYCNAQRNFKSITEYDYWGQGTQVTVSS , please.
Result: high polyreactivity

Now look at this entry.
Request: // polyreactivity (PSR sort gate) lookup, key: QVQLVESGGGIVQAGGSLRLSCAASGNTFHYYVMGWYRQAPGKERELVAAITYTGGSTYYADSVKGRFTISRDNAKNTVYLQMISLKPEDTAVYYCAAGFSPASQLDYWGQGTQVTVSS
Result: low polyreactivity

====

Assay Procedure: yeast display, Sf9 membrane polyspecificity reagent, FACS + sequencing; frameworks hold sequencing errors
Measured Attribute: polyreactivity (PSR sort gate)

Request: // polyreactivity (PSR sort gate) lookup, key: QVQLVESGGGLVQAGGSLRLSCAASGRIFVQNAMGWYRQAPGKERELVAAISISGARTYYADSVKGRFTISRDNAKNTVYLQMNSLKPEDTAVYYCNASYRDEDDYWGQGTQVTVSS
Result: high polyreactivity

Request: Same lookup for QVQLVESGGGLVQAGGSLRLSFAASGRTFVRYAMVWYRQAPGKERELVAAISWSGGSTYYADSVKGRFTISRDNAKNTVYLQMNSLKPEDTAVYYCAAYYRGGNFDYWGQGTQVTLSS , please.
Result: high polyreactivity

Request: Same lookup for QVQLVESGGGLVQAGGSLRLSCAASGRIFPTYAMGWYRQAPGKERELVAAITWRGGRTYYADSVKGRFTISRDNAKNTVYLQMNSLKPEDTAVYYCAAGWLTRSYEYDYWGQGTQVTVSS , please.
Result: high polyreactivity

====

Assay Procedure: yeast display, Sf9 membrane polyspecificity reagent, FACS + sequencing; frameworks hold sequencing errors
Measured Attribute: polyreactivity (PSR sort gate)

Request: // polyreactivity (PSR sort gate) lookup, key: QVQLQESGGGLVQAGGSLRLTCAASGSIYDDTYMGCYRQAPGKERELVATIDSGSTTNYADSVKGRITIRRDNAKNTVYLQMNSLKPEDTAVYFCGAADSHIDYFDYWGQGTQVTVSS
Result: low polyreactivity

Request: Same lookup for QVQLVESGGGLVQAGGSLRLSCAASGSIFTPNAMGWYRQAPGKERELVAAISWSGGGTYYADSVKGRFTISRDNAKNTVYLQMNSLKPEDTADYYCAVDFRYQDAYEYYWGQGTQVTVSS , please.
Result: low polyreactivity

Request: Same lookup for QVQLVESGGGLVQAGGSLRLSCAASGRIFYKYVMGWDRQAPGKERELVADINRSGGTTYYADSVKGRFTISRDNAKNTVYLQMNSLKPEDTAVYYCTATLPDYWPYYYYQGGDDYWGQGTQVNVSS , please.
Result: low polyreactivity

Request: Same lookup for QVQLVESGGGLVQAGGSLRLSCAASGRTFKYYTMGWYRQAPGKERELVAAITSDGSTNYADSVKGRFTISRDNAKNTVYLQMNSLKPEDTAVYYCAAEIRWVFLSYEYWGQGTQVTVSS , please.
Result: high polyreactivity

Request: Same lookup for QVQLVESGGGLVQAGGSLRLTCAASGRTLYRYAMGWYRQAPGKERELVAAITNGGSTKYADSVKGRFTISRDNAKNTVYLQMNSLKPEDTAVYYCYAVVNFILLRIYYGQLYNYWGQGTQVTVSS , please.
Result: low polyreactivity

Now look at this entry.
Request: // polyreactivity (PSR sort gate) lookup, key: QVQLVESGGGLVQAGGSLRLSCAASGSIFFRNAMGWYRQAPGKEREFVAVINYSGGSTRYADSVKGRFTISRDNAKNTVYLQMNSLKPEDTAVYYCATRLYISKMYYWGQGTQVTVSS
Result: high polyreactivity
